Tested on: L1210 leukemia ip in BDF1 mice, survival T/C
Assay: NCI In Vivo Anticancer Drug Screen. Data for tumor model L1210 Leukemia (intraperitoneal) in B6D2F1 (BDF1) mice
Conditions: endpoint: mean survival time; dose: 100.0 mg/kg/injection; schedule: Q01DX009 (ip); vehicle: saline
Procedure: The antitumor activity of compounds was measured in mice bearing transplantable tumors. Survival or tumor size were measured and the results are expressed as the measurement made in the treated group (T) divided by the measurement made in the vehicle treated control group (C). The tumor model used in this assay is L1210 Leukemia (intraperitoneal) in B6D2F1 (BDF1) mice
Toxic doses and inconclusive results are not listed. No stated cut-off is given here; in the data, active means T/C of 150% or more; inactive means T/C below 125%.
Classes used: true (1) for active, false (0) for inactive

> print(dat)
                                    compound  qualitative.label
 1                  C=CCSC(=S)SCc1cccc(Cl)c1          false (0)
 2                       O=P(CCCl)(CCCl)CCCl          false (0)
 3  Cc1ccc(S(=O)(=O)N2CCC(Br)C(=O)c3ccccc32)cc1 (centres undefined)          false (0)
 4                    O=c1[nH]cncc1CCC1OCCO1          false (0)
 5  CCN(CC)CC(=O)NCC(CCN1CCOCC1)(CC(C)C)c1cccc2ccccc12 (centres undefined)          false (0)
 6       CC1C2CCC(C2)C1N (centres undefined)          false (0)
 7                       CC(C)(CCC#N)C1OCCO1          false (0)
 8  O=C(CCC[n+]1ccccc1)CC(O)(C(F)(F)F)C(F)(F)F          false (0)
 9                           CC(C)(C)NC(N)=O          false (0)
10                                 O=C(O)CCI          false (0)
11  NC(CSC(c1ccccc1)(c1ccccc1)c1ccc(C(=O)O)cc1)C(=O)O.[Ga] (centres undefined)          false (0)
12  CC(C)=CCC(C#N)(CCN(C)C)c1cccc2ccccc12 (centres undefined)          false (0)
13                            CNCCCN(C)CCCNC          false (0)
14                        CCOC(=O)c1csc(C)n1          false (0)
15  CC#CCOCC1CN(C)C(=O)O1 (centres undefined)          false (0)
16                     CCOC(=O)c1ncc2cnccn12          false (0)
17  COC(=O)CC1C(=O)C(C)(C(=O)OC)CCC1c1ccc(OC)cc1 (centres undefined)          false (0)
18                     CCOC(=O)CNc1cc(N)ncn1          false (0)
19    S=P(NCCNP(=S)(N1CC1)N1CC1)(N1CC1)N1CC1          false (0)
20                     O=C(C(F)(F)F)C(F)(F)F          false (0)
21                  CCOC(=O)CCc1ccc(O)c(O)c1          false (0)
22          CC1CCC(O)C1O (centres undefined)          false (0)
23                      Cc1ncc(CCl)c(CCl)c1O          false (0)
24          O=C(Nc1cccc(Cl)c1Cl)OCCN1CCNC1=S          false (0)
25  O=C(OCC1OC(n2cnc3c(=S)nc[nH]c32)C(OC(=O)c2ccc(Cl)cc2)C1OC(=O)c1ccc(Cl)cc1)c1ccc(Cl)cc1 (centres undefined)          false (0)
26      [N-]=[N+]=Nc1ccc(-c2nc(N)nc(N)n2)cc1          false (0)
27                            O=C1COC(=O)CO1          false (0)
28                      O=C1CCC(=O)C12CCNCC2          false (0)
29  CC1(C)c2ccccc2C(C)(C(Cl)(Cl)Cl)c2ccc(Cl)cc21 (centres undefined)          false (0)
30                  c1ccc(Nc2ncc3cnccn23)cc1          false (0)
31  COC(=O)C1C2OC(C3OC32)C1C(=O)OC (centres undefined)          false (0)
32  Cc1c(CNc2ccc(Cl)c(C(=O)NC(CC(=O)O)C(=O)O)c2)ccc2nc(N)nc(N)c12 (centres undefined)           true (1)
33                              O=C(O)CCNCCO          false (0)
34           NC(=S)Nc1ccc(C23CCC(CC2)CC3)cc1          false (0)
